# subject.of.test: B1R receptor of the rat (Rattus norvegicus)
# Construct: host or cells: CHO K1 cells (Chinese hamster ovary), stably transfected
# Sequence (P97583 whole entry): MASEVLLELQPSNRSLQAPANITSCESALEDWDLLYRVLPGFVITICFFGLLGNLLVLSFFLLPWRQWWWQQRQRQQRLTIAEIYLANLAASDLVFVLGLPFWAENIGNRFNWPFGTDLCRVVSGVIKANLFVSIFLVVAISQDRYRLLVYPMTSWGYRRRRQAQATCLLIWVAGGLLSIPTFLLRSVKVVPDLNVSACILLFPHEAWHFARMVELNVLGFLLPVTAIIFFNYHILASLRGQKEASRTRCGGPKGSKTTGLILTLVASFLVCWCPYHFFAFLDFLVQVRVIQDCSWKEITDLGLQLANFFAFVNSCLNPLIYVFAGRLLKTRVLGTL
# assay.notes: Functional study on the bradykinin receptor 1 (B1R), FLIPR Ca2+ assay, rB1R cells
# Assay type: cell-based
# measurement.parameters: CHO-K1, test substance 10 μM, agonist Des-Arg9-bradykinin 100 nM, % inhibition compared with the maximum achievable inhibition, read-out: B1R Antagonism, rat [10 μM] % Inhibition
Structures can show the parent of a compound that is named as a salt.

- molecule: "COc1cc(C)c(S(=O)(=O)N2CCCC2COCC(=O)NCc2ccc(CN3CCOCC3)cc2)c(C)c1 (stereo not shown)"
  u: "%"
  inhibition at 10 µM: 88.8
- molecule: "O=C(COCC1CCCN1S(=O)(=O)c1c(Cl)cc(Cl)cc1Cl)NCc1ccc(CN2CCOCC2)cc1 (stereo not shown)"
  u: "%"
  inhibition at 10 µM: 92.3
- molecule: "O=C(COCC1CCCCN1S(=O)(=O)c1c(Cl)cc(Cl)cc1Cl)NCC(c1cccnc1)N1CCOCC1 (stereo not shown)"
  u: "%"
  inhibition at 10 µM: 91
- molecule: "COc1cc(C)c(S(=O)(=O)N2CCCC2COCC(=O)N2CCN(Cc3ccc4c(c3)OCO4)CC2)c(C)c1 (stereo not shown)"
  u: "%"
  inhibition at 10 µM: 98.2
- molecule: "COc1cc(C)c(S(=O)(=O)N2CCCCC2COCC(=O)Nc2cc(-c3ccc(C)cc3)n[nH]2)c(C)c1 (stereo not shown)"
  u: "%"
  inhibition at 10 µM: 107
- molecule: "Cc1cccc(N(Cc2ccccc2)C(=O)COCC2CCCCN2S(=O)(=O)c2cc(Cl)sc2Cl)n1 (stereo not shown)"
  u: "%"
  inhibition at 10 µM: 100
- molecule: "CCN(CC)CCN(CCN(CC)CC)C(=O)COCC1Cc2ccccc2CN1S(=O)(=O)c1ccc(Cl)c(Cl)c1 (stereo not shown)"
  u: "%"
  inhibition at 10 µM: 24.2
- molecule: "CN(C)CCN1CCN(C(=O)COCC2CCCN2S(=O)(=O)c2c(Cl)cccc2Cl)CC1 (stereo not shown)"
  u: "%"
  inhibition at 10 µM: 95.2
- molecule: "COc1cc(C)c(S(=O)(=O)N2CCCCC2COCC(=O)NCc2ccc(N3CCOCC3)cc2)c(C)c1 (stereo not shown)"
  u: "%"
  inhibition at 10 µM: 108
- molecule: "O=C(COCC1CCCCN1S(=O)(=O)c1c(Cl)cccc1Cl)N1CCN(c2nc3ccc(Cl)cc3s2)CC1 (stereo not shown)"
  u: "%"
  inhibition at 10 µM: 102
- molecule: "COc1ccc(C(CNC(=O)COCC2CCCCN2S(=O)(=O)c2c(C)cc(OC)cc2C)N2CCCC2)cc1 (stereo not shown)"
  u: "%"
  inhibition at 10 µM: 97.9
- molecule: "COc1cc(C)c(S(=O)(=O)N2CCCC2COCC(=O)N2CCN(c3ccc(Cl)c(Cl)c3)CC2)c(C)c1 (stereo not shown)"
  u: "%"
  inhibition at 10 µM: 103
- molecule: "CN1CCC(N2CCN(C(=O)COCC3CCCCN3S(=O)(=O)c3ccccc3Cl)CC2)CC1 (stereo not shown) [Example 139, dihydrochloride]"
  u: "%"
  inhibition at 10 µM: 98.8
